B1: POU domain, class 3, transcription factor 4, residues 280 to 335; numbered along this chain, P49335 (parent)
chain: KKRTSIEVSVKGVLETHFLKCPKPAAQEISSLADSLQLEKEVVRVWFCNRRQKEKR

- Variants of: B1
- test: abundance fitness (aPCA) (normalised: wild type 0, dead -1); higher = more abundant; growth selection in yeast, the domain comes from the species named
- condition parameters: Homo sapiens
// abundance fitness lookup, one value per entry
result type: abundance fitness

V45I    -0.527
C48D    0.023
R3W    -0.706
E7H    0.105
V10G    -0.751
K11A    0.778
S35R    0.152
E15N    -0.885
N49Q    0
K23V    -0.225
D34G    -0.537
K55F    -0.194
W46R    -0.927
F47P    -0.996
Q27H    -0.074
R44T    -0.343
W46I    -0.688
H17D    -1
L38T    -0.607
F18G    -0.741
Q52H    -0.069
E15I    -0.368
V13I    -0.235
P22I    -0.606
K20N    -0.475
F47M    -0.897
Q52I    -0.126
K40L    -0.418
V45G    -0.25
